- Tested System: GABARAP, O95166
- Sequence (O95166 whole entry, the tested form may be a part): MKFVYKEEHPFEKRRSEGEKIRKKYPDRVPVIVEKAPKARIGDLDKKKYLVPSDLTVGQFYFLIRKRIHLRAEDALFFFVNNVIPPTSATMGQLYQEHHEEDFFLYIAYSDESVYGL
- Assay Summary: median log2 fold change of GCK-ALFA target abundance (FLAG IP / Myc IP barcode read proportion) (log2 ratio); each designed protein is fused to an ALFA-tag nanobody in HEK293 cells to bring the named protein to FLAG-tagged glucokinase (GCK); Myc marks an untargeted standard; higher = target protein stabilised (more abundant)
- Measurement Context: target protein: 3xFLAG-MCP-GCK-ALFA reporter; HEK293 landing pad (RPLP)
Over roughly 4,500 sequences, “median log2 fold change of GCK-ALFA target abundance (FLAG IP / Myc IP barcode read proportion)” has its median near 0.078; the lowest 2% begin near -0.6. Shown is part of a subset that was picked to be rich in the lowest values.
In this section we review reported median log2 fold change values for a set of binders.
Note: the reply should be a number with no unit written.

GBRAP_26_5483 (protein) REREILDELEAKVKAILADEPAEVRAAVVAEAIDALIEFAEVVEANINDEEKIEKAKKEALEEMRKFLEDLGIPEDKREKVVKALAEALEKVEKAIKEEA	0.341

Now consider the entry below.
Please supply the value of reported median log2 fold change for the item GBRAP_128_3471 (protein) AVEEARKRTEEIMEKMKEANDEEFKKLAEELAEWLLTLPVEEVEAAVEVIKEHLPELSAEKLEILADVLDKAMPKATPEKAALFADVRSEALLLAEEKEE 0.298
